test: AUC (0 to t) in human MDA-MB-231 cells xenografted SCID mouse tumor at 10 mg/kg, po administered as single dose; assay type: ADME, organism-based, Neoplasm; design: dose 10 mg/kg, route oral

# compound, AUC(0-t) (ng·h/mL)
rows = [
    ("CN[C@@H](C)C(=O)N[C@H]1CN(C(=O)CC(C)C)CC[C@H]2CC[C@@H](C(=O)NC(c3ccccc3)c3ccccc3)N2C1=O [XEVINAPANT]", 1100),
]

---

assay: Tmax in human MDA-MB-231 cells xenografted SCID mouse plasma at 30 mg/kg, po administered as single dose; format: ADME, organism-based; parameters: dose 30 mg/kg, route oral

# compound, Tmax
records = [
    ("CN[C@@H](C)C(=O)N[C@H]1CN(C(=O)CC(C)C)CC[C@H]2CC[C@@H](C(=O)NC(c3ccccc3)c3ccccc3)N2C1=O [XEVINAPANT]", "2 h"),
]

---

assay: in vivo; details: SCID, mouse, tumor, po, 30 mg/kg

# compound, Cmax (ng/mL)
rows = [
    ("CN[C@@H](C)C(=O)N[C@H]1CN(C(=O)CC(C)C)CC[C@H]2CC[C@@H](C(=O)NC(c3ccccc3)c3ccccc3)N2C1=O [XEVINAPANT]", 2400),
]

---

assay: Tmax in human MDA-MB-231 cells xenografted SCID mouse tumor at 30 mg/kg, po administered as single dose; format: ADME, organism-based, Neoplasm; set-up: dose 30 mg/kg, route oral

# compound, Tmax, h
data = [
    ("CN[C@@H](C)C(=O)N[C@H]1CN(C(=O)CC(C)C)CC[C@H]2CC[C@@H](C(=O)NC(c3ccccc3)c3ccccc3)N2C1=O", 2),
]

---

target: Baculoviral IAP repeat-containing protein 3 (Homo sapiens); assay: Competitive inhibition of human cIAP2 BIR3 domain expressed in Escherichia coli BL21(DE3) after 2 to 3 hrs by fluorescence polarization assay
Sequence (Q13489 whole entry, the tested form may be a part): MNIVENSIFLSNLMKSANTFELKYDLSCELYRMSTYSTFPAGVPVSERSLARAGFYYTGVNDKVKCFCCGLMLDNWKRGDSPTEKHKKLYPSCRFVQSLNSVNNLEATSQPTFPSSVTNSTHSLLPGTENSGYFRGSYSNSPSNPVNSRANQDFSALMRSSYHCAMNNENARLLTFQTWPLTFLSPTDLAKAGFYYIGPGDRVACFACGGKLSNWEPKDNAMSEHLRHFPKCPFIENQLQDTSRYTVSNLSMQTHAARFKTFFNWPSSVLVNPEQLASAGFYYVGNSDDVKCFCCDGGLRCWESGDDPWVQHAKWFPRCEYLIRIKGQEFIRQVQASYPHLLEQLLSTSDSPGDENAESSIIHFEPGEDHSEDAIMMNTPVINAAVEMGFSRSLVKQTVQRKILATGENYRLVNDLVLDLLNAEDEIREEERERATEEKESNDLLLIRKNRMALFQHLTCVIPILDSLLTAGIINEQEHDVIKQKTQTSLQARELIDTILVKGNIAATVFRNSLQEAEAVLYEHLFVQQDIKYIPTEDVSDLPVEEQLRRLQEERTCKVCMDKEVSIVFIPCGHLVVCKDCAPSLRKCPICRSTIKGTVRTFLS

# compound, IC50 (nM)
rows = [
    ("CN[C@@H](C)C(=O)N[C@H]1CN(C(=O)CC(C)C)CC[C@H]2CC[C@@H](C(=O)NC(c3ccccc3)c3ccccc3)N2C1=O", 22.1),
]

---

assay: AUC (0 to t) in human MDA-MB-231 cells xenografted SCID mouse tumor at 100 mg/kg, po administered as single dose; assay type: ADME, organism-based, Neoplasm; set-up: dose 100 mg/kg, route oral

# molecule, AUC(0-t), ng·h/mL
data = [
    ("CN[C@@H](C)C(=O)N[C@H]1CN(C(=O)CC(C)C)CC[C@H]2CC[C@@H](C(=O)NC(c3ccccc3)c3ccccc3)N2C1=O [XEVINAPANT]", 57300),
]

---

experiment: Tmax in human MDA-MB-231 cells xenografted SCID mouse tumor at 100 mg/kg, po administered as single dose; assay type: ADME, organism-based, Neoplasm; design: dose 100 mg/kg, route oral

# compound, Tmax
rows = [
    ("CN[C@@H](C)C(=O)N[C@H]1CN(C(=O)CC(C)C)CC[C@H]2CC[C@@H](C(=O)NC(c3ccccc3)c3ccccc3)N2C1=O [XEVINAPANT]", "2 h"),
]

---

experiment: AUC (0 to t) in human MDA-MB-231 cells xenografted SCID mouse tumor at 10 mg/kg, iv administered as single dose; format: ADME, organism-based, Neoplasm; set-up: dose 10 mg/kg, route intravenous

# compound, AUC(0-t) [ng·h/mL]
rows = [
    ("CN[C@@H](C)C(=O)N[C@H]1CN(C(=O)CC(C)C)CC[C@H]2CC[C@@H](C(=O)NC(c3ccccc3)c3ccccc3)N2C1=O", 8300),
]
